Test system: SMMC-7721 (human liver cancer)
Assay Procedure: MTT antiproliferative assay, SMMC-7721
Format: cell-based
Reported Conditions: 72 h, mean ± SD
# if measured IC50 < 20 µM: met  # else: not met

Reference set (4 entries):
{"Smiles Representation": "CCN(CC)Cc1cn2c(-c3c[nH]c4ccccc34)cc(-c3ccc(F)cc3Cl)c(C#N)c2n1", "Class Name": "not met"}
{"Smiles Representation": "CN(C)Cc1cn2c(-c3c[nH]c4ccccc34)cc(-c3ccc(F)cc3Cl)c(C#N)c2n1", "Class Name": "not met"}
{"Smiles Representation": "CC1CCN(Cc2cn3c(-c4c[nH]c5ccccc45)cc(-c4ccc(F)cc4Cl)c(C#N)c3n2)CC1", "Class Name": "met"}
{"Smiles Representation": "N#Cc1c(-c2ccc(O)c(O)c2O)cc(-c2c[nH]c3ccccc23)n2ccnc12", "Class Name": "met"}

## Input Field: below-cutoff. Rule: recorded IC50 strictly less than 20 µM. Subject: `N#Cc1c(-c2ccc(F)c(F)c2)cc(-c2c[nH]c3ccccc23)n2ccnc12`
## Output met

## Input Hi there! Is IC50 for `N#Cc1c(-c2ccc(O)c(Br)c2)cc(-c2c[nH]c3ccccc23)n2ccnc12` below 20 µM, do you know?
## Output not met

## Input Problem: For the molecule `N#Cc1c(-c2ccc(F)cc2Cl)cc(-c2c[nH]c3ccccc23)n2cc(CN3CCOCC3)nc12` , is IC50 under 20 µM?
## Output not met

## Input Hi there! Is IC50 for `N#Cc1c(-c2ccccc2F)cc(-c2c[nH]c3ccccc23)n2ccnc12` below 20 µM, do you know?
## Output not met
